Where do the numbers come from? From PubChem BioAssay (NCI).

Items are presented alongside their recorded TGI.
- System: DU-145 prostate
- Method: NCI tumour cell line growth inhibition, 48 h
Endpoint label: TGI

> print(dat)
                                    compound  reported.value
 1  Cc1ccc2c3c(c(=O)[nH]c2c1)C1(C(C#N)=C(N)O3)c2cc(Br)ccc2-c2ccc(Br)cc21         12.1 µM
 2    Cn1c(=O)c2[nH]c(CCCCC(=O)O)nc2n(C)c1=O        > 100 µM
 3  CC(=NNC(=S)Nc1ccc(C)cc1)c1cccc(C(C)=NNC(=S)Nc2ccc(C)cc2)n1        > 100 µM
 4  O=C1C(Cl)C(c2cccc(Cl)c2)N1c1ccc(-n2c(=S)[nH]c3ccccc3c2=O)cc1 (stereo unspecified)        > 100 µM
 5  CO[C@H]1C=C[C@@]23c4cc5c(cc4CO[C@]2(O)CN(C)[C@H]3C1)OCO5        > 100 µM
 6             O=C(Cc1ccccc1)N/N=C/c1ccccc1O        > 100 µM
 7     CSC1=N/C(=C\c2ccccc2)C(=O)N1CN1CCCCC1        > 100 µM
 8  Cc1ccccc1N=Nc1ccc(N/N=C2/CCCNC2=O)c(C)c1        > 100 µM
 9  COc1ccc(C2=Nn3c(nnc(Cc4ccc(Cl)cc4)c3=O)SC2)cc1        > 100 µM
10  COC(=O)C1=C(C(=O)OC)c2cc(OC)ccc2C(C(=S)N(C)C)S1 (stereo unspecified)        > 100 µM
11  CCC(=O)c1c(C(F)(F)F)n([O-])c2ccc(C)cc2[n+]1=O         16.6 µM
12     CCc1oc2ccccc2c1C(=O)c1cc(I)c(O)c(I)c1          7.4 µM
13  CCN(CC)CCCC(C)Nc1cnc(C(=O)Nc2cccc3ccc(OC)nc23)cn1 (stereo unspecified)         15.3 µM
14  CNc1nc2n(CCO)c(-c3ccccc3)c(-c3ccccc3)nc-2c(=O)n1         > 50 µM
15  NC(CCC(=O)O)C(=O)N1CCN(c2nc(N3CCCC3)c3nc(Cl)c(NCc4ccccc4)nc3n2)CC1 (stereo unspecified)         21.9 µM
16  CCOC(=O)C(O)(NC(=O)c1ccc(F)cc1)C(F)(F)F (stereo unspecified)        > 100 µM
17  O=C(/C=C\n1cnc(-c2cc(C(F)(F)F)cc(C(F)(F)F)c2)n1)NNc1cnccn1         12.6 µM
18  CCn1c(SCC(=O)NNC(=S)Nc2ccc(C)cc2)nc2ccccc2c1=O        > 100 µM
19  COc1cc2c3c(n(CCCCOC(=O)C(Cl)(Cl)Cl)c(=O)c2cc1OC)-c1cc2c(cc1C3=O)OCO2        > 100 µM
20  Cc1ccc(NC(=O)NCCCOc2ccc(N3C(N)=NC(N)=NC3(C)C)cc2Cl)cc1S(=O)(=O)F        > 100 µM
21  C=C1CC[C@H](O)C(C)(C)[C@@H]1CC/C(C)=C/CC/C=C(\C)CC/C=C(\C)CCC=C(C)C        > 100 µM
